assay: Kinetic solubility of Compound 1 Lot II, visually estimated at ambient temperature; assay type: physicochemical; conditions: 50:50 DMA/H2O (v/v), aqueous with cosolvent or surfactant or cyclodextrin, thermodynamic from solid, 50:50 DMA/H2O (v/v), ambient temperature; read-out: Solubility (mg/mL)
assay.readout: solubility

Q: Supply measured solubility of CC(=O)Nc1cc(Oc2cnc3nc(Nc4cc(C(F)(F)F)cn(C)c4=O)n(C)c3c2C#N)ccn1 in your reply.
Result: < 1 mg/mL

---

assay: Approximate Aqueous Solubility of Selected Solid Forms; format: physicochemical; settings: water, thermodynamic from solid, ambient temperature, visual observation; read-out: Estimated Aqueous Solubility
Record form. Attribute: solubility. Fill in for each entry.

Q: Retrieve solubility measured for CC(=O)Nc1cc(Oc2cnc3nc(Nc4cc(C(F)(F)F)cn(C)c4=O)n(C)c3c2C#N)ccn1.O=P(O)(O)O [Phosphate Form A] and print it.
Result: < 1000 µg/mL

Q: Return solubility for the following compound: CC(=O)Nc1cc(Oc2cnc3nc(Nc4cc(C(F)(F)F)cn(C)c4=O)n(C)c3c2C#N)ccn1.CCS(=O)(=O)O [Esylate Form A]
Result: < 1000 µg/mL

Q: // fetch solubility given entry CC(=O)Nc1cc(Oc2cnc3nc(Nc4cc(C(F)(F)F)cn(C)c4=O)n(C)c3c2C#N)ccn1.Cl [Compound 2 Form A]
Result: < 2000 µg/mL

Q: // Input: CC(=O)Nc1cc(Oc2cnc3nc(Nc4cc(C(F)(F)F)cn(C)c4=O)n(C)c3c2C#N)ccn1.O=S(=O)(O)c1ccccc1 [Besylate Form A] . Output its solubility only.
Result: < 1000 µg/mL
